- Tgt: UniProtKB P35968
- Sequence (P35968 whole entry): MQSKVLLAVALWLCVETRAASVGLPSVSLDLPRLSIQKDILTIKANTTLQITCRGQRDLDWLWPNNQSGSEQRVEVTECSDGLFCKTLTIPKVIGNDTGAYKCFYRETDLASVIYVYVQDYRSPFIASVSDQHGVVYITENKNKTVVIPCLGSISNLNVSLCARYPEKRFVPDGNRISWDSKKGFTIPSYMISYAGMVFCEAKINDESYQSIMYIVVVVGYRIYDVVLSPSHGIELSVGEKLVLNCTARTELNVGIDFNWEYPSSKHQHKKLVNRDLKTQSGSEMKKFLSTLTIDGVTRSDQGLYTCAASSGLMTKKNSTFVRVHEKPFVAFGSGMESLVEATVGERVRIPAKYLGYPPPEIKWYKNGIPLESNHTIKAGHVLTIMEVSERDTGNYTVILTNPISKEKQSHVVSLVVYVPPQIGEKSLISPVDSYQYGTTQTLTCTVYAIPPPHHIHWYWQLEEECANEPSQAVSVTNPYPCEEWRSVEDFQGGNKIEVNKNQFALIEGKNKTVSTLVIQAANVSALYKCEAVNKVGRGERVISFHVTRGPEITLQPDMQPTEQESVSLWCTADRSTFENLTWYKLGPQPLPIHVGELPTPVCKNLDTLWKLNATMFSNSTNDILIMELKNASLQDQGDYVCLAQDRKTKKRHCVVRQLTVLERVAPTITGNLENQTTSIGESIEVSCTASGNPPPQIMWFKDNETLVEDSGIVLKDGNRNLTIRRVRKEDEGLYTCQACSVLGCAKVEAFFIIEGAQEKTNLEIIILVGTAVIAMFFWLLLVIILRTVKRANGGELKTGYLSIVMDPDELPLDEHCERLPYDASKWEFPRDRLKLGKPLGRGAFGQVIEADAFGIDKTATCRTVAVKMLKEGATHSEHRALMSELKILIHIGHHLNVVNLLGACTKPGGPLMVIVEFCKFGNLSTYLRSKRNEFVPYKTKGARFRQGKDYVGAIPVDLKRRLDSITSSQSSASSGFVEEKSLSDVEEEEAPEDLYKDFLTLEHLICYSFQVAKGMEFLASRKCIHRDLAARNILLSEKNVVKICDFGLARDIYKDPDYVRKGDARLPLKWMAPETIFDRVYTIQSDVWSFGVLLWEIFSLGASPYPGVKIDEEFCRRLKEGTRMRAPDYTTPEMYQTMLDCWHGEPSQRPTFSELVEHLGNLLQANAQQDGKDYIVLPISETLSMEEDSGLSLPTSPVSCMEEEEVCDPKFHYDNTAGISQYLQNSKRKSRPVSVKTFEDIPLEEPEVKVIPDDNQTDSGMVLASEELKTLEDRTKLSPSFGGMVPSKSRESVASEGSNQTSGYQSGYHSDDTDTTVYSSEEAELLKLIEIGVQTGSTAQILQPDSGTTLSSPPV
Metric name: IC50

> print(dat)
                            smiles.input               tgt  metric.name  reported.value
1  CC(C)Nc1nc(-c2ccco2)nc2ccc(C#CCO)cc12  UniProtKB P35968         IC50        > 100 µM

----------
pIC50: −log10 of the molar value.
These records show pIC50 for UniProt:Q96GD4.
Sequence (Q96GD4 whole entry): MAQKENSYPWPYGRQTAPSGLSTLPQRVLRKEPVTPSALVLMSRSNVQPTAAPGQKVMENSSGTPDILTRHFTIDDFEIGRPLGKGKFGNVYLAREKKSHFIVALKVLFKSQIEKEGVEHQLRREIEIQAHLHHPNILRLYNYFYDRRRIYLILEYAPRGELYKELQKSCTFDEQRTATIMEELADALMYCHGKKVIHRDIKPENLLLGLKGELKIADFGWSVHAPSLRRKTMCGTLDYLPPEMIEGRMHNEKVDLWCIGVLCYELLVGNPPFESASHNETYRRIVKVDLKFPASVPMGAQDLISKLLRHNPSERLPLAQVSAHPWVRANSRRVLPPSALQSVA
Metric name: pIC50

> print(dat)
                               smiles.input  metric.name  cmp  reported.value
1  CC(C)Nc1nc(-c2ccco2)nc2ccc(C=CC(C)(C)O)cc12        pIC50    =            4.79
2     CC(C)Nc1nc(-c2ccco2)nc2ccc(C#CCO)cc12        pIC50    <            4.00

----------
- Tgt: Angiopoietin-1 receptor (Homo sapiens, UniProt Q02763)
- Sequence (Q02763 whole entry): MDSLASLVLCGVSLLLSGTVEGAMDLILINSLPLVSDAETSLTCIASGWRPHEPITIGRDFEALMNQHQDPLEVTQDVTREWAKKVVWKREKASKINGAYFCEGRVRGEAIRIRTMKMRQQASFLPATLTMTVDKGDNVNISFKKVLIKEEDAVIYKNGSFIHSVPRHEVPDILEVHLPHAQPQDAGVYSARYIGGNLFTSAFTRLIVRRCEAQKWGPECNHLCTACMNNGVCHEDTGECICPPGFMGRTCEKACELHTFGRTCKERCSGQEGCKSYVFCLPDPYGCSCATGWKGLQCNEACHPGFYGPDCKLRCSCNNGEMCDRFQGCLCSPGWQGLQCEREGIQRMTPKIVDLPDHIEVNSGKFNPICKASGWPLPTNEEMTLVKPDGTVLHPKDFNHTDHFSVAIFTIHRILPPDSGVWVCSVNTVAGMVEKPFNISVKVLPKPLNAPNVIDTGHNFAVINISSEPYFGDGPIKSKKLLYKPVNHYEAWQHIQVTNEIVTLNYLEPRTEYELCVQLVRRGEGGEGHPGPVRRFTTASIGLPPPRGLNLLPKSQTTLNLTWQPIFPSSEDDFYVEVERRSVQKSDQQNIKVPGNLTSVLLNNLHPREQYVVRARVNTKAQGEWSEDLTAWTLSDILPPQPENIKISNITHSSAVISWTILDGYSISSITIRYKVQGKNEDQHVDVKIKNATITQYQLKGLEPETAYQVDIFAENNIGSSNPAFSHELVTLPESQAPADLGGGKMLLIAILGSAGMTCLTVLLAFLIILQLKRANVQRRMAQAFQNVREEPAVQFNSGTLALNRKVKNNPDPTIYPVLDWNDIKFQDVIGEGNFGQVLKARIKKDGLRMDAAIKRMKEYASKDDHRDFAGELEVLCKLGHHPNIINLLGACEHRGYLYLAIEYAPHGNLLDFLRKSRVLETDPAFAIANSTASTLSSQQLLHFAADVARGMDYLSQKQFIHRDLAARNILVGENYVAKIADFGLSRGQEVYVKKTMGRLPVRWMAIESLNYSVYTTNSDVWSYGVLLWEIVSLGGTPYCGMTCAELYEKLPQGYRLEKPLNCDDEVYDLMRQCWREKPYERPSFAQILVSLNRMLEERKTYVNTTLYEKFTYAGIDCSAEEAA
Metric name: IC50

> print(dat)
                                   compound  metric.name  reported.value
1  CC(C)Nc1nc(-c2ccco2)nc2ccc(C=CC(C)(C)O)cc12 [TC-34]         IC50        > 100 µM
2  CC(C)Nc1nc(-c2ccco2)nc2ccc(C#CCO)cc12 [TC-28]         IC50        > 100 µM

----------
Target sequence: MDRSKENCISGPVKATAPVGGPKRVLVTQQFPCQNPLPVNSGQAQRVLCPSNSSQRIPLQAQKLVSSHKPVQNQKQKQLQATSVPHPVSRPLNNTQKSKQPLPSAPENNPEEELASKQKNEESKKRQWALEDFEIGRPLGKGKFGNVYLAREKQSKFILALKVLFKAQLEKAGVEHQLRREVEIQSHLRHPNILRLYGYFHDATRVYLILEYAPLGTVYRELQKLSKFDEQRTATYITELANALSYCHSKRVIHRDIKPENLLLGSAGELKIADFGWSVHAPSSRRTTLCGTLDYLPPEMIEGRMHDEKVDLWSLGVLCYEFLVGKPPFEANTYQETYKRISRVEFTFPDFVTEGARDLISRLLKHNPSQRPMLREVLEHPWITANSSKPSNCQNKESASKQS
pIC50: −log10 of the molar value.
Metric name: pIC50

> print(dat)
                               smiles.input  metric.name  reported.value
1  CC(C)Nc1nc(-c2ccco2)nc2ccc(C=CC(C)(C)O)cc12        pIC50            5.72
2     CC(C)Nc1nc(-c2ccco2)nc2ccc(C#CCO)cc12        pIC50            5.57

----------
The listing below reports IC50 for compounds tested on Fibroblast growth factor receptor 1 (Homo sapiens).
Sequence (P11362 whole entry): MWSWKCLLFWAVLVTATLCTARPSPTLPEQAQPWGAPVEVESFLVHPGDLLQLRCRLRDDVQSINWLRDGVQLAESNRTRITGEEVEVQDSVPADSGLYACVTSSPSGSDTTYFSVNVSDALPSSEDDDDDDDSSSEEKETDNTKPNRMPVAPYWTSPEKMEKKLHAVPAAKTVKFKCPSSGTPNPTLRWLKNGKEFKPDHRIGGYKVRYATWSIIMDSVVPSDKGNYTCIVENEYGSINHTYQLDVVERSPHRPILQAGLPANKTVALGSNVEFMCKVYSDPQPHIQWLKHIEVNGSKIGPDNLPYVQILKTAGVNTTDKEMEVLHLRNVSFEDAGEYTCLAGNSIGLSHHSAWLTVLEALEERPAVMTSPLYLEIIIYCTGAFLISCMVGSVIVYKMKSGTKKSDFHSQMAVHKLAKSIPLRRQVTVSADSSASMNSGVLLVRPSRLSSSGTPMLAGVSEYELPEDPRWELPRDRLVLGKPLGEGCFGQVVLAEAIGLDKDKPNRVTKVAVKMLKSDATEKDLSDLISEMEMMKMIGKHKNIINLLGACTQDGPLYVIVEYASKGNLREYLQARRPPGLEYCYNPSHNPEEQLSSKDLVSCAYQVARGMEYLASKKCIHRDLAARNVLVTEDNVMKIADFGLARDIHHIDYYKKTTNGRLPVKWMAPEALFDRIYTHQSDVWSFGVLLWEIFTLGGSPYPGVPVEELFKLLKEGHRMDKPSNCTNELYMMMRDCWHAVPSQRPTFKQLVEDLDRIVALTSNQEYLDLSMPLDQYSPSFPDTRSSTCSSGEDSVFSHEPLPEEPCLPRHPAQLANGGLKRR
Metric name: IC50

> print(dat)
                               smiles.input  reported.value
1  CC(C)Nc1nc(-c2ccco2)nc2ccc(C=CC(C)(C)O)cc12        > 100 µM
2     CC(C)Nc1nc(-c2ccco2)nc2ccc(C#CCO)cc12        > 100 µM

----------
- Tgt: Insulin-like growth factor 1 receptor (Homo sapiens, UniProt P08069)
- Sequence (P08069 31-736 limits assumed): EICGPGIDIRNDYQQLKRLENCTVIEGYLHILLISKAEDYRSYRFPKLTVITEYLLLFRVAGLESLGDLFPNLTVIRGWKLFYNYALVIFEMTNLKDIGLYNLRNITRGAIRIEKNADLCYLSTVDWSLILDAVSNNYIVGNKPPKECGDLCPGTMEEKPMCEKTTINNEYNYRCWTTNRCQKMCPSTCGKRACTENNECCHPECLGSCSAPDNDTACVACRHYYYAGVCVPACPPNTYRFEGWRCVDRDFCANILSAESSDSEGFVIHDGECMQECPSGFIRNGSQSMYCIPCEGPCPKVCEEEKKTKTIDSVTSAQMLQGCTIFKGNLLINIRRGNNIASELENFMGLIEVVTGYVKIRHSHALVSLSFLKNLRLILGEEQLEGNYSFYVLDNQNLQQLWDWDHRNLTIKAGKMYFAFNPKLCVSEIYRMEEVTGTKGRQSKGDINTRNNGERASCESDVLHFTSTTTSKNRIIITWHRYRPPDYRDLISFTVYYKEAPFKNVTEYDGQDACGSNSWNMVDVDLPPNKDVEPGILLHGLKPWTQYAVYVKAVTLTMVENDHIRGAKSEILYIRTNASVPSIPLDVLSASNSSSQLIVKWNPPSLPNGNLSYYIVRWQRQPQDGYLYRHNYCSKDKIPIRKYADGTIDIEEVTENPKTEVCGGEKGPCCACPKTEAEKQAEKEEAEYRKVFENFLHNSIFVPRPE
- Sequence (P08069 741-1367 limits assumed): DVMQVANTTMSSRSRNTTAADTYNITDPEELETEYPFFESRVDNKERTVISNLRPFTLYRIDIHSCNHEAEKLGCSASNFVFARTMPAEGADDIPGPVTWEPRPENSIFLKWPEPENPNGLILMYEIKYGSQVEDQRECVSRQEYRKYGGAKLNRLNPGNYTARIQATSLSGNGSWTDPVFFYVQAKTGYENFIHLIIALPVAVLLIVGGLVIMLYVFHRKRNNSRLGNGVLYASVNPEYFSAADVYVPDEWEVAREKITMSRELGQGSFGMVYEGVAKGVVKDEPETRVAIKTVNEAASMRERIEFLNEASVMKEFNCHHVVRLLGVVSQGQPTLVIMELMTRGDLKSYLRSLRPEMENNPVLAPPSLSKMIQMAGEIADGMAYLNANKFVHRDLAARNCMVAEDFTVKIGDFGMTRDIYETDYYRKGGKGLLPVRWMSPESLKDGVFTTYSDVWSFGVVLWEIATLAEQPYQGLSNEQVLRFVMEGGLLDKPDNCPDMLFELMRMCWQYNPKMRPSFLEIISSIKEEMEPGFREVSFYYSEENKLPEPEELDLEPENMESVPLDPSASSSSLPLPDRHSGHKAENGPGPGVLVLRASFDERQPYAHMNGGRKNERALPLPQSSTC
- Assay info: In Vitro Kinase Assay
- Experimental parameters: pH 7.5
Metric name: IC50

> print(dat)
                            smiles.input  metric.name  reported.value
1  CC(C)Nc1nc(-c2ccco2)nc2ccc(C#CCO)cc12         IC50        > 100 µM
